target: human recombinant LRRK2 protein (Homo sapiens); test: LRRK2 kinase activity assay (ADP-Glo, LRRKtide peptide); conditions: human recombinant LRRK2 wt, LRRKtide peptide and ATP, 1 h at 37° C.
PROPERTY MEASURED: IC50

C[C@@H]1CCOCCCc2ncn(n2)-c2n[nH]c3ccc(cc23)O1; < 10 nM
C[C@H]1CCNCCOc2cncc(c2)-c2n[nH]c3ccc(cc23)O1; < 10 nM
FCC1CCOc2ccc3[nH]nc(c3c2)-c2cccc(c2)OCCN1 (centres unmarked); < 100 nM
C[C@@H]1CCNCCOc2cc(cc(N3CCOCC3)c2)-c2n[nH]c3ccc(cc23)O1; < 10 nM
C[C@H]1NCCOc2cccc(c2)-c2n[nH]c3ccc(cc23)OC[C@@H]1F; < 100 nM

====

Listed here: items and their measured IC50.
target: human recombinant LRRK2 protein (Homo sapiens, UniProt Q5S007); assay: LRRK2 kinase activity assay (ADP-Glo, LRRKtide peptide); conditions: human recombinant LRRK2 wt, LRRKtide peptide and ATP, 1 h at 37° C.
Sequence (Q5S007 whole entry): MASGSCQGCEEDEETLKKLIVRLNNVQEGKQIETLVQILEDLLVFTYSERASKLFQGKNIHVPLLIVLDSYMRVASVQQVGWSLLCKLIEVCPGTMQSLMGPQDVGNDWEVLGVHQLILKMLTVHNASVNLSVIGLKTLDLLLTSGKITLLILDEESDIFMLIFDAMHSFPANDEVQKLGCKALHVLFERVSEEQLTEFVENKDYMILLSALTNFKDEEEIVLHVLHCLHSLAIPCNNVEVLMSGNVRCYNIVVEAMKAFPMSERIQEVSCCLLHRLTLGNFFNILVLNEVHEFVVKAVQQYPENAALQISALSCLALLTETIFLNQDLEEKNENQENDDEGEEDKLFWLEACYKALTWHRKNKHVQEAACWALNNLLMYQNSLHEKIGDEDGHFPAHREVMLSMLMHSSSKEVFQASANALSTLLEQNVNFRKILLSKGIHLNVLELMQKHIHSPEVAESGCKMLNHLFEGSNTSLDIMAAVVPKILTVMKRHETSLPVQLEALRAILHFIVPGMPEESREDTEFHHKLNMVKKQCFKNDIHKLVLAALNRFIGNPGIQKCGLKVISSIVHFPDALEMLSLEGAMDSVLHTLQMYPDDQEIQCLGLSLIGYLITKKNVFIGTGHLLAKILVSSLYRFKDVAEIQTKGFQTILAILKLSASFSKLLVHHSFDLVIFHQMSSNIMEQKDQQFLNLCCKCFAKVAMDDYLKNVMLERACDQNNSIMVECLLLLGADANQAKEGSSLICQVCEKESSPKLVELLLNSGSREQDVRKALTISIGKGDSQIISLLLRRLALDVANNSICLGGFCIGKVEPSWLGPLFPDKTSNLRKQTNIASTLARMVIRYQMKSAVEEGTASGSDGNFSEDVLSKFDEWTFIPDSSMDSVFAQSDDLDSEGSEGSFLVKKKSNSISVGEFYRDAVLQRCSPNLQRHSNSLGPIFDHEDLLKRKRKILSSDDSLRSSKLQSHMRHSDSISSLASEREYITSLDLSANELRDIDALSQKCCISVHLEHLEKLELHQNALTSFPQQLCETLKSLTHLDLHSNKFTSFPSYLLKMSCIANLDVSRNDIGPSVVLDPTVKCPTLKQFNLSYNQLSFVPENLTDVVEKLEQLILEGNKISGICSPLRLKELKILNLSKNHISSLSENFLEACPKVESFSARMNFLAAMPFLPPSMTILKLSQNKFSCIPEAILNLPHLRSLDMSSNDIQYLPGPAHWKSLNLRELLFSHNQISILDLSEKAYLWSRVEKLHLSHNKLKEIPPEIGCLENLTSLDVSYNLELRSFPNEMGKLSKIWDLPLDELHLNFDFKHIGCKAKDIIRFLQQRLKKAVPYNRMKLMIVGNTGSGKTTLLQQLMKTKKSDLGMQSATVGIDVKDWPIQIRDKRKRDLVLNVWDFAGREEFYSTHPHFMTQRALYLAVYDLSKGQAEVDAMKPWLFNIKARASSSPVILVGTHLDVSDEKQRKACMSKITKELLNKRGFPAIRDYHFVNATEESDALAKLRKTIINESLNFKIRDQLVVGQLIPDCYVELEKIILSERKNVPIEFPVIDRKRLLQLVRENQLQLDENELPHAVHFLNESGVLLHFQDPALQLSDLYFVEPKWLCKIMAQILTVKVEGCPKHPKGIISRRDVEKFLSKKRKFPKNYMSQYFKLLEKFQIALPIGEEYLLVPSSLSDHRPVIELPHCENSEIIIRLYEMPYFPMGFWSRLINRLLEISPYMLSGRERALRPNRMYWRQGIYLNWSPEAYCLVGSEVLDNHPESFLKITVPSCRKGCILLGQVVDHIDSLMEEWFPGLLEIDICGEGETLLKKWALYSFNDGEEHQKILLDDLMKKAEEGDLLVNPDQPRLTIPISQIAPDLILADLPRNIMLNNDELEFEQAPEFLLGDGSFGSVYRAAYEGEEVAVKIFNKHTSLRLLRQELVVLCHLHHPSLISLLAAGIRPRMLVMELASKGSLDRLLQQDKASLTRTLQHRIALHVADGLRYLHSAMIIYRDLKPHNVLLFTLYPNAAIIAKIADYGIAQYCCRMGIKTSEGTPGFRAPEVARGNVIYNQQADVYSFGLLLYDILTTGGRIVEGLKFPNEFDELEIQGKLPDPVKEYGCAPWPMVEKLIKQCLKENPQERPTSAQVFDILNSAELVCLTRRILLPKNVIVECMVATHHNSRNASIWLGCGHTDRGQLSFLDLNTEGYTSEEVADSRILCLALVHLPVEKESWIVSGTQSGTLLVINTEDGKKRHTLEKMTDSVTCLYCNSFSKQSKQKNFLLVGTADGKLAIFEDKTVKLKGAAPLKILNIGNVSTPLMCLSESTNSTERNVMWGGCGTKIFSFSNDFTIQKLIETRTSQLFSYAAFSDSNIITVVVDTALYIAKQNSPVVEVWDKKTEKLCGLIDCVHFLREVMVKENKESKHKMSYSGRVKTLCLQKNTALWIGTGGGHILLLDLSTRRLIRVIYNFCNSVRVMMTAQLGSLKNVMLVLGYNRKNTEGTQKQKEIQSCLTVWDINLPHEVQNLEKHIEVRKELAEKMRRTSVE
PROPERTY MEASURED: IC50

C[C@@H]1CCCOCCn2ncc(n2)-c2n[nH]c3ccc(cc23)O1 [Example 124]; < 10 nM
C[C@H]1CCOCCOc2nc(cc(N3CCCC3)n2)-c2n[nH]c3ccc(cc23)N1 [Example 39]; < 10 nM
C[C@H]1CCNCCOc2cc(cc(N3CCOCC3)c2)-c2n[nH]c3ccc(cc23)O1 [Example 175]; < 10 nM
CC1(C)COCCCOc2ccc3[nH]nc(c3c2)-c2cnn(c2)C1 [Example 31]; < 10 nM
c1ncc2cc1OCCCNCCOc1ccc3[nH]nc-2c3c1 [Example 238]; < 10 nM
c1cc2[nH]nc3c2cc1NCCCOCCOc1cncc-3c1 [Example 4]; < 10 nM
c1cc2[nH]nc3c2cc1OCCCCOCCn1ncc-3n1 [Example 115]; < 10 nM
C[C@H]1CCOCCOCc2nc(cs2)-c2n[nH]c3ccc(cc23)O1 [Example 62]; < 100 nM
C[C@@H]1CCNCCOc2cncc(c2)-c2n[nH]c3ccc(cc23)O1 [Example 163]; < 10 nM
C[C@@H]1CCOCCOc2cccc(n2)-c2n[nH]c3ccc(cc23)O1 [Example 56]; < 10 nM
C[C@H]1COc2ccc3[nH]nc(c3c2)-c2cccc(c2)OCC(=O)N[C@@H]1C [Example 215]; < 100 nM
COC1COCCOC[C@@H](C)Oc2ccc3[nH]nc(c3c2)-c2cnn1c2 (stereo partly drawn) [Example 95]; < 100 nM
C[C@@H]1Cn2cc(cn2)-c2n[nH]c3ccc(cc23)OCCOCCO1 [Example 77]; < 100 nM
C[C@@H]1CCNC(=O)CCn2cc(cn2)-c2n[nH]c3ccc(cc23)O1 [Example 179]; < 10 nM
C[C@@H]1CCOCC[C@H](C)n2cc(cn2)-c2n[nH]c3ccc(cc23)O1 [Example 36]; < 10 nM
C[C@@H]1COCC[C@H](C)Oc2cncc(c2)-c2n[nH]c3ccc(cc23)O1 [Example 11]; < 100 nM
C[C@H]1COCCCOc2nccc(n2)-c2n[nH]c3ccc(cc23)O1 [Example 26]; < 10 nM
COC1CNCCOc2cccc(c2)-c2n[nH]c3ccc(cc23)OC1 (stereo not drawn) [Example 171]; < 100 nM
